experiment: Membrane permeability test using Caco-2 cells with preincubation; assay type: in vitro ADME; details: Caco-2
Starred links: 1 amine or outer side, 2 acyl side, 3 side chain; linkers in the order of their positions; H or OH if unused. Positions of bridges follow the written chain, without caps; N, C: chain ends. Non-standard residues stand in square brackets, D forms with d. Residues, ends and D or L forms follow the SMILES beside them. *: point of attachment. NMedβ3hAla = C[C@H](CC(=O)[*:2])N(C)[*:1]; NMeF = CN[C@@H](Cc1ccccc1)C(=O)O; NMeGABA = CN(CCCC(=O)[*:2])[*:1]; NMeI = CC[C@H](C)[C@H](NC)C(=O)O; hPhe = N[C@@H](CCc1ccccc1)C(=O)O; NMeβAla = CN(CCC(=O)[*:2])[*:1]; NMeD = CN[C@@H](CC(=O)O)C(=O)O; NMeL = CN[C@@H](CC(C)C)C(=O)O; NMeV = CN[C@H](C(=O)O)C(C)C; NMeAbu = CC[C@H](NC)C(=O)O; NMeA = CN[C@@H](C)C(=O)O; Piperidide = C1CCN(*)CC1; Abu = CC[C@H](N)C(=O)O; βAla = NCCC(=O)O; Sar = CNCC(=O)O; tBu = CC(C)(C)*
propertyLabel: Papp A→B (×10⁻⁶ cm/s)

[[record]]
compound = "CC[C@H](C)[C@H]1C(=O)NCCC(=O)N(C)[C@@H](CC(C)C)C(=O)N[C@H](C(=O)N2CCCCC2)CC(=O)N(C)[C@@H](C)C(=O)N[C@@H](CC(C)C)C(=O)N[C@@H]([C@@H](C)O)C(=O)N(C)[C@@H](Cc2ccccc2)C(=O)NCCC(=O)N(C)[C@@H](C(C)C)C(=O)N[C@@H](CC(C)C)C(=O)N(C)[C@@H]([C@@H](C)CC)C(=O)N[C@@H](CCc2ccccc2)C(=O)N(C)CC(=O)N1C [pd024] ([NMeA]LT[NMeF][βAla][NMeV]L[NMeI][hPhe][Sar][NMeI][βAla][NMeL]D-Piperidide; lactam N-14)"
operatorsymbol = "="
numericreadout = 0.3

[[record]]
compound = "CC[C@H](C)[C@H]1C(=O)N(C)[C@@H](CC(C)C)C(=O)N[C@@H](CCc2ccccc2)C(=O)N(C)[C@@H](CC(C)C)C(=O)N(C)CCC(=O)N(C)[C@@H](C(C)C)C(=O)N[C@@H](CC(C)C)C(=O)N(C)[C@@H](CC(C)C)C(=O)N[C@@H]([C@@H](C)O)C(=O)N(C)CCC(=O)N(C)[C@@H](Cc2ccccc2)C(=O)N[C@@H](C(C)C)C(=O)N(C)[C@H](C(=O)N2CCCCC2)CC(=O)N(C)CC(=O)N1C [pd096] ([Sar][NMeI][NMeL][hPhe][NMeL][NMeβAla][NMeV]L[NMeL]T[NMeβAla][NMeF]V[NMeD]-Piperidide; lactam N-14)"
operatorsymbol = "="
numericreadout = 0.51

[[record]]
compound = "CC[C@H](C)[C@H]1C(=O)N[C@@H](CC(C)C)C(=O)N(C)CC(=O)N(C)[C@@H](CC(C)C)C(=O)N[C@@H](CC(C)C)C(=O)N(C)[C@H](C)CC(=O)N(C)[C@@H](CC(C)C)C(=O)N(C)CCC(=O)N(C)[C@@H](CC(C)C)C(=O)N[C@@H](COC(C)(C)C)C(=O)N(C)[C@@H](Cc2ccccc2)C(=O)N(C)CCC(=O)N(C)[C@@H](Cc2ccccc2)C(=O)N1C [pd144] (cyclo(L[Sar][NMeL]L[NMedβ3hAla][NMeL][NMeβAla][NMeL]S(tBu)[NMeF][NMeβAla][NMeF][NMeI]))"
operatorsymbol = "="
numericreadout = 1.28

[[record]]
compound = "CC[C@@H]1NC(=O)[C@H](CC(C)C)N(C)C(=O)CCNC(=O)[C@H](Cc2ccccc2)N(C)C(=O)[C@H](Cc2ccccc2)N(C)C(=O)CNC(=O)[C@H]([C@@H](C)CC)NC(=O)[C@H](CC(C)C)N(C)C(=O)CCCN(C)C(=O)C[C@@H](C)N(C)C(=O)[C@H](CC(C)C)NC(=O)[C@H]([C@@H](C)CC)NC(=O)[C@H](C)N(C)C(=O)[C@H](C(C)C)NC1=O [pd062] (cyclo([Abu]V[NMeA]IL[NMedβ3hAla][NMeGABA][NMeL]IG[NMeF][NMeF][βAla][NMeL]))"
operatorsymbol = "<"
numericreadout = 0.11

[[record]]
compound = "CC[C@H](C)[C@@H]1NC(=O)[C@H](CC(C)C)N(C)C(=O)[C@H](CC(C)C)NC(=O)CCN(C)C(=O)C[C@@H](C)N(C)C(=O)[C@H](CC(C)C)N(C)C(=O)CNC(=O)[C@@H]2CCCN2C(=O)[C@H](CC(C)C)N(C)C(=O)CCNC(=O)[C@H]([C@@H](C)CC)N(C)C(=O)[C@H](CCc2ccccc2)NC(=O)[C@H](Cc2ccccc2)N(C)C1=O [pd141] (cyclo(G[NMeL][NMedβ3hAla][NMeβAla]L[NMeL]I[NMeF][hPhe][NMeI][βAla][NMeL]P))"
operatorsymbol = "="
numericreadout = 0.24

[[record]]
compound = "CC[C@H](C)[C@@H]1NC(=O)[C@H]([C@@H](C)CC)N(C)C(=O)[C@@H](C)NC(=O)C[C@@H](C(=O)N2CCCCC2)N(C)C(=O)[C@H](Cc2ccccc2)N(C)C(=O)[C@H](C(C)C)NC(=O)CCN(C)C(=O)[C@H](CC)N(C)C(=O)[C@H](CC(C)C)N(C)C(=O)[C@H](C)NC(=O)CN(C)C(=O)[C@H](CC(C)C)N(C)C(=O)CCN(C)C(=O)[C@H](Cc2ccccc2)N(C)C1=O [pd081] ([dA][NMeI]I[NMeF][NMeβAla][NMeL][Sar]A[NMeL][NMeAbu][NMeβAla]V[NMeF][NMeD]-Piperidide; lactam N-14)"
operatorsymbol = "="
numericreadout = 0.02


Values from patent EP4768499A1
